# protocol details: AUC (0 to infinitive) in Sprague-Dawley rat at 10 mg/kg, po measured up to 24 hrs by LC-MS/MS analysis
# Format: ADME, organism-based
# Design: route oral, dose 10 mg/kg, time <=24
# measurement setup: in vivo
measurement name: AUC(0-inf) (ng·h/mL)
Give just the number in ng·h/mL; leave the unit off.

Consider the molecule CN1CCN(c2ccc(Nc3ncc(Cl)c(Nc4cccc(C(F)(F)F)c4)n3)nc2)CC1 and give its measured AUC(0-inf). 158

###

# protocol details: Cmax in Sprague-Dawley rat at 1 mg/kg, ip measured up to 24 hrs by LC-MS/MS analysis
# Assay type: ADME, organism-based
# Design: route intraperitoneal, dose 1 mg/kg, time <=24
# measurement setup: in vivo
measurement name: Cmax (ng/mL)
Give just the number in ng/mL; leave the unit off.

Consider the compound CN1CCN(c2ccc(Nc3ncc(Cl)c(Nc4cccc(C(F)(F)F)c4)n3)nc2)CC1 and give its measured Cmax. 458
